test system: HIV-1 L74V; test: microbe, parasite or virus in culture; type: cell-based; conditions: Human immunodeficiency virus 1; P4/R5 cells, mean ± standard deviation
EC50 values for the compounds below.

>  <Compound>
CCOC(=O)[C@H](C)NP(=O)(OC[C@H]1O[C@@H](n2cnc3c(N)nc(N)nc32)CC1N=[N+]=[N-])Oc1ccccc1 (some centres unmarked)

>  <System tested>
HIV-1 L74V

>  <EC50 (µM)>
0.073

$$$$
>  <Compound>
Cc1cn([C@H]2C[C@H](N=[N+]=[N-])[C@@H](CO)O2)c(=O)[nH]c1=O [AZT, 3′-azido-3′-deoxythymidine, reference compound]

>  <System tested>
HIV-1 L74V

>  <EC50 (µM)>
0.156

$$$$
